Assay: yeast display, Sf9 membrane polyspecificity reagent, FACS + sequencing; frameworks hold sequencing errors
Metric name: polyreactivity (PSR sort gate)

[[record]]
chain = "QVQLVESGGGLVQAGGSLRLSCAASGFIFRSNAMGWYRQAPGKEREFVAAISSRGGSTTYADSVKGRFTISRDNAKNSVYLQMNSLKPEDTAVYYCARDWYYYPQYRQRYYYWGQGTQVTVSS"
result = "high polyreactivity"

[[record]]
chain = "QVQLVESGAGLVQAGGSLRLSCAASGSTFYFNGMGWYRQAPGKERELVAAISSTGNTYYADSVKGRFTISRDNAKNTVYLQMNSLKPEDTAVNDCLAGSSEAGYYWGHGTQVTVSS"
result = "high polyreactivity"

[[record]]
chain = "QVQLVESGGGLVQAGGSLRLSCAASGFIFLLYDMGWYRQAPGKERELVAAISRSGGSTYYADSVKGRFTISRDNAKNTVYLQMNSLKPEDTAVYYCNAAYRPWRGGYYPVGYYYWGQGTQVTVSS"
result = "high polyreactivity"

[[record]]
chain = "QVQLVESGRGLVQAGGSLRLSCAASGSTFGWYSMGWYRQAPGKERELVTAITSSGDSTYYADSVKGRFTISRDNAKNTVYLQMNSLKPEDTAVYYCAADYADLNDYWGQGTQVTVSS"
result = "low polyreactivity"

[[record]]
chain = "QVQLVESGGGLVQAGGSLRLSCAASGLILYTYAMGWSRQAPGQVRELVAAINSGGRTYYADAVKGRFTISRDNAKNTVYLQMNSLKPEDTAVYYCAADYGSRVRGFNYWGQGTQVTVSS"
result = "low polyreactivity"

[[record]]
chain = "QVQLVESGGGLVEAGGSLRLICAASGSTFGWYAMGWSRQAPGKEREFVAAISWSGTSTYYADSVKGRFTISRDNAKNTVYLQMNSLKPEDTAVYYCNARSKRANRSLGLGYWGQGTQVTVSS"
result = "low polyreactivity"

[[record]]
chain = "QVQLVESGGGLVQAGGSLRLSCAASGSIFANNGMGWYRQAPGKERELVARISKRGGSTYYADSVKGRFTFSRDNAKNTVYLQMNSLKPEDTAVYYCNVRSWWGYTGPYDYWGQGTQVTVSS"
result = "high polyreactivity"

[[record]]
chain = "QVQLQERAGGLVQAGGSLRQRCSASGYISCDASMGWYRQAPGKERELAASITKGSSTKYADIVKGRFTFRDNAKNTVYLKMNSLKPEDTAVCYCAVTYPYWGDYTYWGQGTQVTVSS"
result = "low polyreactivity"

[[record]]
chain = "QVQLVESGGGLVQAGGSLRLSCAASGITFLDYAMGWYRQAPGKERELVADISTSGGSTYYADSVKGRFTISRDNAKNTVYLQMNSLKPEDTAVYYCAADTFDFWWSLGSMDYWGQGTQVTVSS"
result = "high polyreactivity"

[[record]]
chain = "QVQLVESGGGLVQAGGSLRLSCAASGFTFTGYAIGWYRQAPGKERELVAAITSNTGGTYYADSVKGRFTISRDNAKNTVYLEMNSLKAEDTAVYYCAAGHSGGQVDTIFQGMDYWGQGTQVTVSS"
result = "low polyreactivity"

[[record]]
chain = "QVQLVESGGGLVQAGGSLRLSCAASGGILVGYAMGWYRQAPGKERELVAAINYSGGSTNYADSVKGRFTISRDNAKNTVYLQMNSLKPVDTAVYYCAARSTARYGYWGQGTQVTVSS"
result = "low polyreactivity"

